Tgt: UniProtKB P00734
Assay Comment: Enzymatic assay for thrombin (Boc-VPR-AMC substrate)
Format: biochemical
Assay Setup: read-out: Thrombin Ki
Counter-ions that a name gives are not always drawn.
Entries and their measured Ki follow.
Assay Metric: Ki

INSERT INTO results (molecule, tgt, result) VALUES
  ('C[C@H](NC(=O)[C@H]1C[C@H](Cc2ccc(-c3ccccc3)cc2)CN1)C(=O)NCc1cnc2[nH]cc(Cl)c2c1 [compound 1356, Di-trifluoroacetate salt]', 'UniProtKB P00734', '> 25 µM'),
  ('CCOC(=O)CCCN1CC[C@H](c2ccccc2)C[C@@H]1C(=O)N[C@@H](C)C(=O)NCc1ccc(N)nc1C', 'UniProtKB P00734', '> 25 µM'),
  ('Cc1nc(N)ccc1CNC(=O)[C@H](CCC(N)=O)NC(=O)[C@H]1C[C@H](Cc2ccccc2)CN1 [compound 1382, Di-trifluoroacetate salt]', 'UniProtKB P00734', '> 25 µM'),
  ('C[C@H](NC(=O)[C@H]1C[C@H](c2ccccc2)CN1)C(=O)NCc1cc2ccncc2[nH]1 [compound 1495, Di-trifluoroacetate salt]', 'UniProtKB P00734', '> 25 µM'),
  ('C[C@H](NC(=O)[C@@H](CCc1ccccc1)NCc1ccccc1N1CCN(C)CC1)C(=O)NCc1ccc(C(=N)N)cc1', 'UniProtKB P00734', '< 0.5 µM'),
  ('Cc1cnc(NCCc2ccccc2)c(=O)n1CC(=O)NCc1cnc2[nH]cc(Cl)c2c1 [compound 1490, Acetate salt]', 'UniProtKB P00734', '< 0.5 µM');

----------
Tgt: MASP-2 (CCP1-CCP2-SP) (Homo sapiens (Human))
Sequence (O00187 445-686): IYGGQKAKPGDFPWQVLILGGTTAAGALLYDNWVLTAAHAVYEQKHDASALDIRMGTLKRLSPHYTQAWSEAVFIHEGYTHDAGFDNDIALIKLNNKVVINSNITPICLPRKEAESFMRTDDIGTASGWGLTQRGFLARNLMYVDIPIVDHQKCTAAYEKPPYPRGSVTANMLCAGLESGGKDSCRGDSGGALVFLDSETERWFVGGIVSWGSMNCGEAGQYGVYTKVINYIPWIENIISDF
Assay Comment: biochemical
Type: biochemical
Assay Setup: MASP-2 inhibition versus thrombin
Assay Metric: MASP-2 vs. thrombin selectivity

INSERT INTO assay_data (record_smiles, result) VALUES
  ('CCCCCN[C@H](CCc1ccccc1)C(=O)N[C@@H](C)C(=O)NCc1ccc(C(=N)N)cc1', '−− (less than 1.0-fold)'),
  ('N=C(N)c1ccc(CNC(=O)[C@@H]2CCN2C(=O)[C@H](NCC(=O)O)C2CCCC2)cc1', '−− (less than 1.0-fold)'),
  ('COc1cccc(CC[C@@H](N)C(=O)N[C@@H](C)C(=O)NCc2ccc(C(=N)N)cc2)c1', '** (5.0 to 25-fold)'),
  ('C[C@H](NC(=O)[C@H](N)CCc1ccc(F)cc1F)C(=O)NCc1ccc(C(=N)N)cc1', '** (5.0 to 25-fold)'),
  ('Cc1c(Cl)cccc1CC[C@@H](N)C(=O)N[C@@H](C)C(=O)NCc1ccc(C(=N)N)cc1', '** (5.0 to 25-fold)');

----------
Tgt: human α-thrombin (Homo sapiens (Human), UniProt P00734)
Assay Comment: Enzymatic assay for thrombin (Boc-VPR-AMC substrate)
Format: biochemical
Assay Setup: read-out: Thrombin Ki
Where a name gives a salt, the structure may show the parent alone.
Assay Metric: Ki

INSERT INTO assay_data (compound, result) VALUES
  ('Cc1nc(N)ccc1CNC(=O)[C@@H]1CCCN1C(=O)[C@H]1C[C@H](Cc2ccc(Br)cc2)CN1 [compound 1465, Di-trifluoroacetate salt]', '< 500 nM'),
  ('Cc1nc(N)ccc1CNC(=O)[C@H](C)NC(=O)C1=CC(c2ccccc2)C2=C(CC(C)(C)CC2=O)N1 (some centres unmarked) [compound 1388]', '> 25000 nM'),
  ('C[C@H](NC(=O)[C@@H](CCc1ccccc1)NC1CCCCC1)C(=O)NCc1ccc(C(=N)N)cc1 [compound 1130, Dihydrochloride]', '< 500 nM'),
  ('CC(C)(C)[C@@H](NCC(=O)O)C(=O)N1CC[C@H]1C(=O)NCc1ccc(C(=N)N)cc1 [compound 1055]', '< 500 nM'),
  ('N=C(N)c1ccc(CNC(=O)[C@@H]2CCN2C(=O)[C@H](NCC(=O)O)C2CCCC2)cc1 [compound 1083]', '< 500 nM'),
  ('N=C(N)c1ccc(CNC(=O)[C@@H]2CCN2C(=O)[C@H](NCC(=O)O)c2ccccc2)cc1 [compound 1100]', '< 500 nM'),
  ('C[C@H](NC(=O)[C@H](N)CCc1ccccc1)C(=O)NCc1ccc(C(=N)NO)cc1 [compound 1157, Dihydrochloride]', '> 25000 nM'),
  ('C[C@H](NC(=O)[C@H](N)CCc1ccccc1)C(=O)NCc1cccnc1N [compound 1346, Dihydrochloride]', '> 25000 nM'),
  ('CC(=O)N[C@@H](C(=O)N1CC[C@H]1C(=O)NCc1ccc(C(=N)N)cc1)C1CCCCC1 [compound 1077]', '< 500 nM'),
  ('N=C(N)c1ccc(CNC(=O)[C@H]2CCCCN2C(=O)[C@H](NCC(=O)O)C2CCCCC2)cc1 [compound 1154]', '< 500 nM'),
  ('Cc1cccc(C[C@@H]2CN[C@@H](C(=O)N[C@@H](C)C(=O)NCc3cc(Cl)cc(C)c3O)C2)c1 [compound 1369, Hydrochloride]', '> 25000 nM'),
  ('CCc1cccc([C@H]2CN[C@@H](C(=O)N[C@@H](C)C(=O)NCc3ccc(N)nc3C)C2)c1 [compound 1303, Dihydrochloride]', '> 25000 nM'),
  ('C[C@H](NC(=O)[C@H](N)C1Cc2ccccc2C1)C(=O)NCc1ccc2nc(N)n(C)c2c1 [compound 1171]', '> 25000 nM'),
  ('CN(CC(=O)NCc1ccc(C(=N)N)cc1)C(=O)[C@H](NCC(=O)O)C1CCCCC1 [compound 1096]', '< 500 nM');
